Documented Activity (logarithmic partition parameter above shampoo) across a set of molecules
assay: Headspace above the shampoo: relative partition parameter (SPME-GC); type: physicochemical; details: log of amount in headspace relative to amount in shampoo; 1% odorant mixture, SPME 15 min
Just the number, please, no unit after it.

Use these answered entries as a reference point.
{"Molecule": "C=CC(C)(O)CCC=C(C)C (stereo not drawn)", "Recorded result": "−0.511"}
{"Molecule": "CC(C)=CCC/C(C)=C/CO", "Recorded result": "−1.839"}
{"Molecule": "CC(C)=CCCC(C)CCO (stereo not drawn)", "Recorded result": "−1.406"}
{"Molecule": "CC(=O)/C=C/C1C(C)=CCCC1(C)C (stereo not drawn)", "Recorded result": "−1.157"}
{"Molecule": "CC(=O)/C=C/C1=C(C)CCCC1(C)C", "Recorded result": "−1.282"}
{"Molecule": "CC(=O)OCC=C(C)C [Prenyl acetate]", "Recorded result": 0.844}

## Task Provide only the value of recorded Activity (logarithmic partition parameter above shampoo) for CC(=O)OC(C)(C)Cc1ccccc1 [DMBCA, dimethylbenzylcarbinyl acetate]
## Result −0.513

## Task Supply reported Activity (logarithmic partition parameter above shampoo) belonging to this molecule: `OCc1ccccc1`
## Result −0.759

## Task Item CC1=CCC2CC1C2(C)C (stereo not drawn) : provide Activity (logarithmic partition parameter above shampoo)
## Result 0.769

## Task Fill in Activity (logarithmic partition parameter above shampoo) for record `CC1=CCC(C(C)C)=CC1`
## Result 1.009

## Task Given the molecule CC(=O)OC(C)(C)C1CC=C(C)CC1 (stereo not drawn) [Terpinyl acetate] , write its reported Activity (logarithmic partition parameter above shampoo).
## Result −0.561

====

experiment: Headspace above the fresh gel room air freshener: relative partition parameter (SPME-GC); format: physicochemical; conditions: log of amount in headspace relative to amount in gel; 5% odorant mixture, 10 liter vessel, 1 h, SPME 15 min
Reported Activity (logarithmic partition parameter above gel room air fresheners) is given for each of the following molecules.
Number only, no unit.

Check out these entries, answers already filled in.
{"Molecule": "CC(=O)OCc1ccccc1 [Benzyl acetate]", "Recorded result": 0.594}
{"Molecule": "CC(=O)OC(C)(C)Cc1ccccc1 [DMBCA, dimethylbenzylcarbinyl acetate]", "Recorded result": 0.125}
{"Molecule": "C[C@@H]1CC[C@H]2C(C)(C)[C@H]3C[C@@]12CC[C@@]3(C)O", "Recorded result": "−1.761"}
{"Molecule": "CC(C)CCOC(=O)c1ccccc1O [Isoamyl salicylate]", "Recorded result": "−1.544"}
{"Molecule": "C=CC(C)(O)CCC=C(C)C (centres unmarked)", "Recorded result": 0.376}

## Task Supply measured Activity (logarithmic partition parameter above gel room air fresheners) of CC1=CCC2CC1C2(C)C (centres unmarked) in your reply.
## Result −0.273

## Task Please give the documented Activity (logarithmic partition parameter above gel room air fresheners) of `CC1=CCC(C(C)C)=CC1`
## Result 0.126

## Task Answer with the recorded Activity (logarithmic partition parameter above gel room air fresheners) for the molecule listed here: C=C1CCC2CC1C2(C)C (centres unmarked)
## Result −0.090

## Task Specify measured Activity (logarithmic partition parameter above gel room air fresheners) for `C=C(C)[C@H]1CC=C(C)CC1` .
## Result 0.062

## Task Answer with the recorded Activity (logarithmic partition parameter above gel room air fresheners) of CC(=O)OC(C)c1ccccc1 (centres unmarked) [Styrolyl acetate] only.
## Result 0.568

## Task Tell me measured Activity (logarithmic partition parameter above gel room air fresheners) for CC(CC=O)CCCC(C)(C)O (centres unmarked) [Hydroxycitronellal] please.
## Result −1.161
